Measured TGI, listed per entry.
# Test system: NCI-H226 lung
# procedure_details: NCI tumour cell line growth inhibition, 48 h

- Cn1cc(C2=C(c3cn(C)c4c(N)cccc34)C(=O)NC2=O)c2ccccc21: > 22.1 µM
- O=C(NCCCNC(=O)c1ccc2cc(O)c(O)cc2c1)c1ccc2cc(O)c(O)cc2c1: 57.8 µM
- CCC(C)(O)c1cn(-c2cccc(S(=O)(=O)O)c2)nn1 (configuration not stated): > 100 µM

Fill in: TGI of "COc1cc(Cn2c(-c3ccccc3)cc3c2-c2oncc2CC3)cc(OC)c1OC" is ___
> 100 µM

Value lookup for TGI; key = "Cc1cc(C)cc(Nc2cc(C)nc3nc(C(F)(F)F)nn23)c1"
> 100 µM

Consider the compound CCCCNC(=O)NS(=O)(=O)c1ccc(N2N=C(c3ccc(C)cc3C)CC2c2ccc(N(C)C)cc2)cc1 (configuration not stated) and give its measured TGI.
21.8 µM

Look at this compound and give its reported TGI. "COc1ccc(-c2nc(-c3nc4ccc(C)cc4[nH]3)c3ccccn23)cc1"
> 100 µM

Which TGI reading was recorded for the compound O=P(c1ccccc1)(c1ccccc1)C(NCc1ccccc1)c1ccc(F)cc1 (configuration not stated) ?
40.4 µM

Record request: TGI value, item "CCOC(=O)Cn1sc2ncc([N+](=O)[O-])cc2c1=O"
> 100 µM

Report TGI for "CN(C)CC(CN(C)C)c1ccccn1" please.
> 100 µM

Item under review: CC(C)CC(N)C(=O)O (configuration not stated) . Reported TGI?
> 100 µM

Fill in: TGI of "O=C(c1ccc(Cl)cc1Cl)N(C(=O)N1CCCCC1)c1ccccc1" is ___
> 100 µM

Fill blank: measured TGI of the compound "CN(CCCNc1ccc2ncn3c4ccccc4c(=O)c1c23)CCCN1C(=O)c2cccc3cc([N+](=O)[O-])cc(c23)C1=O" is ____.
1.55 µM

Give its TGI value. Item: COc1ccc(OC(=O)O[C@H]2[C@H](O[C@H]3[C@@H](O)COC(O[C@H]4C[C@H]5[C@@H]6CC=C7C[C@@H](O)CC[C@]7(C)[C@H]6CC[C@]5(C)[C@H]4[C@H](C)C(=O)CCC(C)C)[C@@H]3OC(C)=O)OC[C@@H](O)[C@@H]2O)cc1 (some centres not stated)
18.7 µM

What value of TGI has been recorded for this entry: COc1ccc(-c2c(C(C)=O)c(-c3ccccc3)n(C3OC(COC(C)=O)C(OC(C)=O)C(OC(C)=O)C3OC(C)=O)c(=S)c2C#N)cc1 (configuration not stated)
> 100 µM

Please give the measured TGI for this compound: "CC[C@H](C)[C@H](NC(=O)[C@H]1CCCCN1C)C(=O)N(C)[C@H](CCc1nc(C(=O)N[C@@H](Cc2ccccc2)C[C@H](C)C(=O)OC)cs1)C(C)C"
> 12.4 µM

Could you tell me which TGI is on file for "CC1=C2C3=C(C)C(=O)C(C)(C)CC[C@@]3(C)[C@]2(C)CCC(C)(C)C1=O" ?
> 100 µM

###

# Test system: SNB-75 CNS
# procedure_details: NCI tumour cell line growth inhibition, 48 h
Reported log10 TGI is given for each of the following compounds.
Values below are the log10 of the recorded TGI, with µM as the unit.

• S=C1Cc2c([nH]c3ccccc23)-c2ccccc2N1 = 1.82

So what's the measured log10 TGI for this one? "Cc1cc(C)cc(Nc2nnc3n2S(=O)(=O)c2cc(C#N)c(Cl)cc2S3)c1"
0.88

What does the record list as log10 TGI for "O=C(CCCSc1nc(-c2ccc(Cl)cc2)cc(-c2ccc(Cl)cc2)n1)NO" ?
1.08

Which log10 TGI reading was recorded for the compound "O=[N+]([O-])c1ccccc1N=Nc1c(O)sc2ccccc12" ?
1.90

Please give the measured log10 TGI for this compound: "C=C1C(=O)O[C@H]2[C@H]1CC/C(COC(=O)/C=C\C(=O)NCc1ccc(Cn3c(=O)sn(-c4ccc(C#N)cc4)c3=O)cc1)=C\CC[C@@]1(C)O[C@@H]21"
0.12

Entry "CC(C)(C)C1=CC(=CC=C2C=CN(CCCCCCCCCCCO)C=C2)C=C(C(C)(C)C)C1=O" has what log10 TGI?
0.73
